experiment: OD615 S. cerevisiae growth inhibition, permissive medium, pilot counter-assay, permissive growth control for S. cerevisiae lifespan shortening project (AID 705); conditions: OD615, 24 h, at 10 µM, active compounds read high
QUANTITY: growth inhibition (%)
Answer format: numeric, % implied, no suffix.

Example cases with answers are listed next.
>>> reported_result("CCOC(=O)C1CCN(C(=O)CS(=O)Cc2nc(-c3ccc(C)cc3)oc2C)CC1 (centres undefined)")
1.66
>>> reported_result("CCOC(=O)C1=C(SCC(=O)Nc2ccccc2)NC(=O)C(C#N)C12CCCCC2 (centres undefined)")
-8.66
>>> reported_result("CCC(=O)NCc1nc2ccccc2n1Cc1ccccc1F")
-7.37
>>> reported_result("CC(=O)c1sc(NC(=O)c2ccco2)nc1-c1ccccc1")
-6.58
>>> reported_result("Cc1nccn1-c1ncnc2sc3c(c12)CCCC3")
-7.46
>>> reported_result("O=C(O)C1CCCN1S(=O)(=O)c1cc(Cl)ccc1Cl (centres undefined)")
-3.73
>>> reported_result("CCOC(=O)c1ccc(NC(=O)c2nccnc2C(=O)O)cc1")
-4.96
>>> reported_result("O=C(CCSc1ccccc1)NCCSc1ccccn1")
-12.8
>>> reported_result("CC1CC(C)CN(C(=O)CSc2nnc(-c3ccc(Cl)cc3)o2)C1 (centres undefined)")
-0.98
>>> reported_result("O=S(=O)(NCC(c1cccnc1)N1CCN(Cc2ccccc2)CC1)c1ccccc1 (centres undefined)")
-10

Summary for this compound, CN1CCc2c(sc(NC(=O)c3ccc(S(=O)(=O)N4CCOCC4)cc3)c2C(N)=O)C1 : growth inhibition is -5.07

// field: growth inhibition; key: Cn1cnnc1SCC(=O)Nc1ccccc1 ; value = -6.99

growth inhibition reported for this compound COc1cccc(NC(=O)c2nnn(CCc3ccccc3)c2N)c1 : -1.48
